- STUDY_SYSTEM: T1, human TSH receptor (full length), coated on tubes (human, UniProt P16473 22-764)
- T1 construct: TSHR coated tubes as described in WO2004/050708A2; The receptor is full length and held on plastic tubes through a mouse MAb to the TSHR; also called thyroid stimulating hormone receptor
- EXPERIMENTAL_DETAILS: inhibition of 125I-K1-70 Fab (competitor) binding to TSHR coated tubes; 0.3 µg/mL in HBD serum pool
We begin with a simple list: items and their reported Inhibition of binding (%).
Form entry: value (%) — number only.

Below, each entry is followed by its recorded Inhibition of binding (%) result.
INSERT INTO measurements (binder, result_value) VALUES
  ('K1-70 Fab (Fab, V domains shown) VH: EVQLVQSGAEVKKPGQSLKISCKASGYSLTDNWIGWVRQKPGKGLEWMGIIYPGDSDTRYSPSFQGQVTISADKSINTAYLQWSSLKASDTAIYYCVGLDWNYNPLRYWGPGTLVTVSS VL: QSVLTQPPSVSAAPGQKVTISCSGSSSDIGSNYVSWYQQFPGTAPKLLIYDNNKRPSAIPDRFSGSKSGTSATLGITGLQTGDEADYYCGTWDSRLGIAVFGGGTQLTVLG', 91.4),
  ('K1-18 IgG (antibody, V domains shown, Human IgG1 kappa purified from hetero-hybridoma supernatant; also called human monoclonal autoantibody to the TSHR with TSH agonist activity) VH: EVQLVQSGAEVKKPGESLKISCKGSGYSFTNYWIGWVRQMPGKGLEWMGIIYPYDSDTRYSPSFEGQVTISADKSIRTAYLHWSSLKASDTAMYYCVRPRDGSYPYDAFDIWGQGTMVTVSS VL: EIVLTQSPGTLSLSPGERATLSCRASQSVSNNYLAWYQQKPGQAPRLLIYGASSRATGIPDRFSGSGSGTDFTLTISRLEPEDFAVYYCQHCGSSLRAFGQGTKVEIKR', 77.7),
  ('K1-70 IgG (antibody, V domains shown, Human IgG1 lambda purified from hetero-hybridoma supernatant; also called human monoclonal autoantibody to the TSHR with TSH antagonist activity) VH: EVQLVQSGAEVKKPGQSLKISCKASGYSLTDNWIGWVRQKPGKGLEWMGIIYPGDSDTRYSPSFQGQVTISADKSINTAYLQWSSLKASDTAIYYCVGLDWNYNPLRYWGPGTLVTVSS VL: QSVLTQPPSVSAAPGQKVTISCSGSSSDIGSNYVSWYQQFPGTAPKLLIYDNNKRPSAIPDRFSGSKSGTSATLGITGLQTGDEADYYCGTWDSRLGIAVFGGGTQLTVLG', 97);

Field: next binder
Input: Form field: reported Inhibition of binding (%) of K1-18 Fab (Fab, V domains shown) VH: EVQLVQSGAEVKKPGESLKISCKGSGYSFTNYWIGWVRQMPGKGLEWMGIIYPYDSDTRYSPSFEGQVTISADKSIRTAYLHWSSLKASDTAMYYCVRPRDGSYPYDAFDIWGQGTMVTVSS VL: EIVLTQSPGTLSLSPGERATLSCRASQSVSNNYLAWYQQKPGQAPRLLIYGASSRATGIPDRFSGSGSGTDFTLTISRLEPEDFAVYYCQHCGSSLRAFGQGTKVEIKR
Output: 63.9
